- Target: S. aureus GyrB (Staphylococcus aureus)
- Construct: purchased Inspiralis Ltd., Norwich, UK
- Sequence (P0A0K8 whole entry): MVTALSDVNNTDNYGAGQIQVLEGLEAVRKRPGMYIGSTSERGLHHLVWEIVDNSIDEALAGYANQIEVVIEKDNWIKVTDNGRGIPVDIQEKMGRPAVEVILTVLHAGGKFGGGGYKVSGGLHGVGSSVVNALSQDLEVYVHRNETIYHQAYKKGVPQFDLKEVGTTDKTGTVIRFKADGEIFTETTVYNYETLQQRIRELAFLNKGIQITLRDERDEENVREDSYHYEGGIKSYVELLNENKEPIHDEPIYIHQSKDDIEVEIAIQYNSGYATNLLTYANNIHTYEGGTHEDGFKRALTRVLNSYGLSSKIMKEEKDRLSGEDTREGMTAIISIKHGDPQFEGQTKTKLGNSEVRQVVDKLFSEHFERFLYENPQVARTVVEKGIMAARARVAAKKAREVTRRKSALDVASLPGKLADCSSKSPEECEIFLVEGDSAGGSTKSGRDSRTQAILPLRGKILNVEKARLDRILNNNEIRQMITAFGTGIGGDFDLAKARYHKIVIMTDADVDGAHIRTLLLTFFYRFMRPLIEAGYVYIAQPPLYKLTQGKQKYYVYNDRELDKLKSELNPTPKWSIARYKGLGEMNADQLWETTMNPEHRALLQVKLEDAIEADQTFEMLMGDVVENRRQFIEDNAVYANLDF
- Sequence (P20831 whole entry, further chain): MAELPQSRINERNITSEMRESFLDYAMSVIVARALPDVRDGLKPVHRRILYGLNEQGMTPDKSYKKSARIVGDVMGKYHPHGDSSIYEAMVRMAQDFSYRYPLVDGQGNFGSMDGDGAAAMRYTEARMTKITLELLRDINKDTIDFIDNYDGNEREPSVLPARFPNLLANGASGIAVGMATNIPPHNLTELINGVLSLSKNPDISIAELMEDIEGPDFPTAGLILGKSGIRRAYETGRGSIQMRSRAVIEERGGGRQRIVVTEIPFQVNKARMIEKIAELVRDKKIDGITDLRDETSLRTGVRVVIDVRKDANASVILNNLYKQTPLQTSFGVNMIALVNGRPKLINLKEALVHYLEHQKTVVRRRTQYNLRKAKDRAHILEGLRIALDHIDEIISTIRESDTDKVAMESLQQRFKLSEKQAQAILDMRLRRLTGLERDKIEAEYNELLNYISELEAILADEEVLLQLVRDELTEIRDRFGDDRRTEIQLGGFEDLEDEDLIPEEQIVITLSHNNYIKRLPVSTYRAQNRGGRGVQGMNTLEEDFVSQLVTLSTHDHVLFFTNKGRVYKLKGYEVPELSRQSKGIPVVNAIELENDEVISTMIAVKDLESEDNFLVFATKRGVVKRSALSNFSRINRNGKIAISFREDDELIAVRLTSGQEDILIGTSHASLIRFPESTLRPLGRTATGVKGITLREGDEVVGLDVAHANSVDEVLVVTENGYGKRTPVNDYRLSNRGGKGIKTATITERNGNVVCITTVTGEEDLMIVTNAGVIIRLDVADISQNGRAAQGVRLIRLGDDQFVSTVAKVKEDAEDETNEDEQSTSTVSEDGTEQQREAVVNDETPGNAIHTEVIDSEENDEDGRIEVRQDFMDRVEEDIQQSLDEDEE
- Assay method text: S. aureus GyrB (Gyrase ATPase) inhibition assay, ADP-Glo
- Assay type: biochemical
- Cond: IC50 for GyrB (µM, mean ± SD), S. aureus Gyrase ATPase inhibition; average of duplicates
Reported metric: log10(IC50) (log10 of the value in µM)
Scale: decimal log of IC50, IC50 in µM.

CCc1nc2ccccc2c(=O)n1NC(=O)c1c(O)c2ccccc2n(CC)c1=O = -0.55
CCCCCc1nc2ccc(C)cc2c(=O)n1NC(=O)c1c(O)c2ccccc2n(CC)c1=O = -0.08
CCCCCc1nc2cc(OC)c(OC)cc2c(=O)n1NC(=O)c1c(O)c2ccccc2n(CC)c1=O = 0.03
CCCCCc1nc2cc(Cl)ccc2c(=O)n1NC(=O)c1c(O)c2ccccc2n(CC)c1=O = -0.08
CCCCCc1nc2cc(C)ccc2c(=O)n1NC(=O)c1c(O)c2ccccc2n(CC)c1=O = 1.39
CCCCc1nc2ccccc2c(=O)n1NC(=O)c1c(O)c2ccccc2n(CC)c1=O = 0.37
CCCCCc1nc2ccc(Cl)cc2c(=O)n1NC(=O)c1c(O)c2ccccc2n(CC)c1=O = 0.20
CCCCCc1nc2c(C)cccc2c(=O)n1NC(=O)c1c(O)c2ccccc2n(CC)c1=O = -0.11

Now take the following compound into account.
Documented log10(IC50) of CCCc1nc2ccccc2c(=O)n1NC(=O)c1c(O)c2ccccc2n(CC)c1=O : 1.08

====

- Assay method text: in vitro
- Assay type: in vitro ADME, mouse
- Cond: mouse, plasma
Reported metric: half-life at 1 µM

Documented half-life at 1 µM of CCCCCc1nc2ccccc2c(=O)n1NC(=O)c1c(O)c2ccccc2n(CC)c1=O [f1] : > 6.21 h

====

- Assay method text: in vitro
- Assay type: in vitro ADME, mouse
- Cond: mouse plasma, 37 °C; read-out: In vitro metabolic stability t1/2 (min) in plasma
Reported metric: half-life at 1 µM (min)
Note: unit min is implicit; provide only the numeric part.

Documented half-life at 1 µM of CC(C)[N+](C)(CCOC(=O)C1c2ccccc2Oc2ccccc21)C(C)C [propantheline, reference compound] : 66.3

====

- Assay method text: Mouse microsomal stability assay
- Type: in vitro ADME
- Cond: mouse, microsomes, pH 7.4
Reported metric: half-life at 1 µM (min)
Note: unit min is implicit; provide only the numeric part.

Documented half-life at 1 µM of CCCCCc1nc2ccccc2c(=O)n1NC(=O)c1c(O)c2ccccc2n(CC)c1=O : 24.5

====

Listed molecules paired with reported melting point

Documented melting point of CCCCCc1nc2ccc(C(F)(F)F)cc2c(=O)n1NC(=O)c1c(O)c2ccccc2n(CC)c1=O [f5] : 128.3 to 130.2 °C

Documented melting point of CCCCCc1nc2ccc(Cl)cc2c(=O)n1NC(=O)c1c(O)c2ccccc2n(CC)c1=O [f2] : 141.5 to 143.1 °C

Documented melting point of CCCCCc1nc2c(OC)cccc2c(=O)n1NC(=O)c1c(O)c2ccccc2n(CC)c1=O [f12] : 178.3 to 180.1 °C

Documented melting point of CCCc1nc2ccccc2c(=O)n1NC(=O)c1c(O)c2ccccc2n(CC)c1=O [f15] : 158.6 to 160.7 °C

Documented melting point of CCCCCc1nc2ccc(OC)cc2c(=O)n1NC(=O)c1c(O)c2ccccc2n(CC)c1=O [f4] : 98.7 to 99.9 °C

Documented melting point of CCCCCc1nc2cc(OC)ccc2c(=O)n1NC(=O)c1c(O)c2ccccc2n(CC)c1=O [f8] : 146.8 to 147.6 °C

Documented melting point of CCCCCc1nc2ccc(C)cc2c(=O)n1NC(=O)c1c(O)c2ccccc2n(CC)c1=O [f3] : 160.6 to 162.3 °C

Data provenance is paper PMC9186351.
